- Test name: in vivo
- Test parameters: rat, in vivo, po, 20 mg/kg, Tmax, CON rats; 20 mg/kg oral

| Compound | Tmax / min |
| --- | --- |
| CC1CCN(C(=O)CC#N)CC1N(C)c1ncnc2[nH]ccc12 (stereo not shown) [tofacitinib] | 50 |

====

- Test name: in vivo
- Test parameters: rat, in vivo, iv, 10 mg/kg, CL, LC-ISN rats; 10 mg/kg i.v.

| Compound | clearance (L/h/kg) |
| --- | --- |
| CC1CCN(C(=O)CC#N)CC1N(C)c1ncnc2[nH]ccc12 (stereo not shown) | 0.828 |

====

- Test name: in vivo
- Test parameters: rat, in vivo, po, 20 mg/kg, Cmax, LC rats; 20 mg/kg oral

| Compound | Readout unit | Cmax |
| --- | --- | --- |
| CC1CCN(C(=O)CC#N)CC1N(C)c1ncnc2[nH]ccc12 (stereo not shown) [tofacitinib] | ng/mL | 9100 |
